Here, each record is paired with measured ΔTm data.
Biological target: CREB-binding protein/Histone acetyltransferase p300 (Homo sapiens, UniProt Q09472+Q92793)
Sequence (Q09472 whole entry, looked up): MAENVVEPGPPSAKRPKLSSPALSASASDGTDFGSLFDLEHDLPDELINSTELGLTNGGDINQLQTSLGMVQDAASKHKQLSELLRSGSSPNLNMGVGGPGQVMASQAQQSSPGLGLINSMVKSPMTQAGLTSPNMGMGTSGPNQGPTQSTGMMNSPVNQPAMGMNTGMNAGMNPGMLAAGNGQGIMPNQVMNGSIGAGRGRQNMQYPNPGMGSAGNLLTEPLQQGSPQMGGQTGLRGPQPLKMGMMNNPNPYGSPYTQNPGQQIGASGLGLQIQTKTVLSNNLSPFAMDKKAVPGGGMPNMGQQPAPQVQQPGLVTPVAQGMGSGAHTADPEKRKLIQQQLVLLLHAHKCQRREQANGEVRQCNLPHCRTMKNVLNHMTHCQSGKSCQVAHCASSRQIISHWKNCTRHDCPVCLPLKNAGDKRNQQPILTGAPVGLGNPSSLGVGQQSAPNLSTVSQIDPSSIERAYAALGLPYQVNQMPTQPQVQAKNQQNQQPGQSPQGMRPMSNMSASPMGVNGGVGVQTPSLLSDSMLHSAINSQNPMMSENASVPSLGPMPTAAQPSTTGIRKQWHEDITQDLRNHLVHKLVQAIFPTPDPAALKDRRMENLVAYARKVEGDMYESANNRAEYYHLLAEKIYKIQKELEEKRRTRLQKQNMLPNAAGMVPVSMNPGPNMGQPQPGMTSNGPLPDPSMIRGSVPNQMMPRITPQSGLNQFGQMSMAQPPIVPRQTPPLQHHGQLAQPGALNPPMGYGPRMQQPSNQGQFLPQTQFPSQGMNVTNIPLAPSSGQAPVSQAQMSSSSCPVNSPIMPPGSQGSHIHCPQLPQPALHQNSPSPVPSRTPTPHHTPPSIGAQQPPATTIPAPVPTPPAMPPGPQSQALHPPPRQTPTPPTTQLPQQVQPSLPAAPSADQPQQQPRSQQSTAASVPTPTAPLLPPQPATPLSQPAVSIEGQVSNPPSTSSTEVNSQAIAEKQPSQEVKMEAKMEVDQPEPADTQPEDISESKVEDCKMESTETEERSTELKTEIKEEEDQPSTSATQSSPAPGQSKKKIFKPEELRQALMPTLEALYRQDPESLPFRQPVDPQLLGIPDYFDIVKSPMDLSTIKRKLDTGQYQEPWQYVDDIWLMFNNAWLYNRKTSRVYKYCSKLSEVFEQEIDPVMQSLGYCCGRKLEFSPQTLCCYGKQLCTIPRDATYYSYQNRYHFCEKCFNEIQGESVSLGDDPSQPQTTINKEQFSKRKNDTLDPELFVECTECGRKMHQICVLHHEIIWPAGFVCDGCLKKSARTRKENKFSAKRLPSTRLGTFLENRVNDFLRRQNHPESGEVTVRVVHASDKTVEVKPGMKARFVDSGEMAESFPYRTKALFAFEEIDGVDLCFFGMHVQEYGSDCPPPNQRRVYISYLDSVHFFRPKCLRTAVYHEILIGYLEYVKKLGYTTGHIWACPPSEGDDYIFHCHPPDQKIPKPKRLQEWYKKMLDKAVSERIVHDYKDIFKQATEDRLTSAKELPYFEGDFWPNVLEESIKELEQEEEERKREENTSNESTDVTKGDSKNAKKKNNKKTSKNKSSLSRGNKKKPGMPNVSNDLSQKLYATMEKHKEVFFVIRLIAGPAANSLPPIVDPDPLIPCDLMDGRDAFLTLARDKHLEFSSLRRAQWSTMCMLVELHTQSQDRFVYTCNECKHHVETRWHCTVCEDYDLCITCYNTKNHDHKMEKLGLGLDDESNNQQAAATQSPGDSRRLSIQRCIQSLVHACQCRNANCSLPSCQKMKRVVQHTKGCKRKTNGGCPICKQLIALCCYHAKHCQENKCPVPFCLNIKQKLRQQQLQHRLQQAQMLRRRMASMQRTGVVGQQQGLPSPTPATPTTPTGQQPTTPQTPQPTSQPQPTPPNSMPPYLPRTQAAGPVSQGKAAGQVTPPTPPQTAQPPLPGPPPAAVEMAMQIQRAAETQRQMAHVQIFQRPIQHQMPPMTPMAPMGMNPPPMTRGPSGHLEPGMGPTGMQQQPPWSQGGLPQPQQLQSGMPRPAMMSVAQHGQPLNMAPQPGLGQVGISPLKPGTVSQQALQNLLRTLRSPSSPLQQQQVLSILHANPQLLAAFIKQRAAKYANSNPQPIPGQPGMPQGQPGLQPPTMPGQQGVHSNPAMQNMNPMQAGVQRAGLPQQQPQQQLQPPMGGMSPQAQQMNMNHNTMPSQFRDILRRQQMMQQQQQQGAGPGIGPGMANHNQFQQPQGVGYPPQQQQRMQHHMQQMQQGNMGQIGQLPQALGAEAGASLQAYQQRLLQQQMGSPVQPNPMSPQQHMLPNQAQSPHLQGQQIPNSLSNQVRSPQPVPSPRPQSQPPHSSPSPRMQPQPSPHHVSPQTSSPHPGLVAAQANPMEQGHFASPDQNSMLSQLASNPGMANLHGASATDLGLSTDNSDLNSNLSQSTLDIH
Sequence (Q92793 whole entry, looked up): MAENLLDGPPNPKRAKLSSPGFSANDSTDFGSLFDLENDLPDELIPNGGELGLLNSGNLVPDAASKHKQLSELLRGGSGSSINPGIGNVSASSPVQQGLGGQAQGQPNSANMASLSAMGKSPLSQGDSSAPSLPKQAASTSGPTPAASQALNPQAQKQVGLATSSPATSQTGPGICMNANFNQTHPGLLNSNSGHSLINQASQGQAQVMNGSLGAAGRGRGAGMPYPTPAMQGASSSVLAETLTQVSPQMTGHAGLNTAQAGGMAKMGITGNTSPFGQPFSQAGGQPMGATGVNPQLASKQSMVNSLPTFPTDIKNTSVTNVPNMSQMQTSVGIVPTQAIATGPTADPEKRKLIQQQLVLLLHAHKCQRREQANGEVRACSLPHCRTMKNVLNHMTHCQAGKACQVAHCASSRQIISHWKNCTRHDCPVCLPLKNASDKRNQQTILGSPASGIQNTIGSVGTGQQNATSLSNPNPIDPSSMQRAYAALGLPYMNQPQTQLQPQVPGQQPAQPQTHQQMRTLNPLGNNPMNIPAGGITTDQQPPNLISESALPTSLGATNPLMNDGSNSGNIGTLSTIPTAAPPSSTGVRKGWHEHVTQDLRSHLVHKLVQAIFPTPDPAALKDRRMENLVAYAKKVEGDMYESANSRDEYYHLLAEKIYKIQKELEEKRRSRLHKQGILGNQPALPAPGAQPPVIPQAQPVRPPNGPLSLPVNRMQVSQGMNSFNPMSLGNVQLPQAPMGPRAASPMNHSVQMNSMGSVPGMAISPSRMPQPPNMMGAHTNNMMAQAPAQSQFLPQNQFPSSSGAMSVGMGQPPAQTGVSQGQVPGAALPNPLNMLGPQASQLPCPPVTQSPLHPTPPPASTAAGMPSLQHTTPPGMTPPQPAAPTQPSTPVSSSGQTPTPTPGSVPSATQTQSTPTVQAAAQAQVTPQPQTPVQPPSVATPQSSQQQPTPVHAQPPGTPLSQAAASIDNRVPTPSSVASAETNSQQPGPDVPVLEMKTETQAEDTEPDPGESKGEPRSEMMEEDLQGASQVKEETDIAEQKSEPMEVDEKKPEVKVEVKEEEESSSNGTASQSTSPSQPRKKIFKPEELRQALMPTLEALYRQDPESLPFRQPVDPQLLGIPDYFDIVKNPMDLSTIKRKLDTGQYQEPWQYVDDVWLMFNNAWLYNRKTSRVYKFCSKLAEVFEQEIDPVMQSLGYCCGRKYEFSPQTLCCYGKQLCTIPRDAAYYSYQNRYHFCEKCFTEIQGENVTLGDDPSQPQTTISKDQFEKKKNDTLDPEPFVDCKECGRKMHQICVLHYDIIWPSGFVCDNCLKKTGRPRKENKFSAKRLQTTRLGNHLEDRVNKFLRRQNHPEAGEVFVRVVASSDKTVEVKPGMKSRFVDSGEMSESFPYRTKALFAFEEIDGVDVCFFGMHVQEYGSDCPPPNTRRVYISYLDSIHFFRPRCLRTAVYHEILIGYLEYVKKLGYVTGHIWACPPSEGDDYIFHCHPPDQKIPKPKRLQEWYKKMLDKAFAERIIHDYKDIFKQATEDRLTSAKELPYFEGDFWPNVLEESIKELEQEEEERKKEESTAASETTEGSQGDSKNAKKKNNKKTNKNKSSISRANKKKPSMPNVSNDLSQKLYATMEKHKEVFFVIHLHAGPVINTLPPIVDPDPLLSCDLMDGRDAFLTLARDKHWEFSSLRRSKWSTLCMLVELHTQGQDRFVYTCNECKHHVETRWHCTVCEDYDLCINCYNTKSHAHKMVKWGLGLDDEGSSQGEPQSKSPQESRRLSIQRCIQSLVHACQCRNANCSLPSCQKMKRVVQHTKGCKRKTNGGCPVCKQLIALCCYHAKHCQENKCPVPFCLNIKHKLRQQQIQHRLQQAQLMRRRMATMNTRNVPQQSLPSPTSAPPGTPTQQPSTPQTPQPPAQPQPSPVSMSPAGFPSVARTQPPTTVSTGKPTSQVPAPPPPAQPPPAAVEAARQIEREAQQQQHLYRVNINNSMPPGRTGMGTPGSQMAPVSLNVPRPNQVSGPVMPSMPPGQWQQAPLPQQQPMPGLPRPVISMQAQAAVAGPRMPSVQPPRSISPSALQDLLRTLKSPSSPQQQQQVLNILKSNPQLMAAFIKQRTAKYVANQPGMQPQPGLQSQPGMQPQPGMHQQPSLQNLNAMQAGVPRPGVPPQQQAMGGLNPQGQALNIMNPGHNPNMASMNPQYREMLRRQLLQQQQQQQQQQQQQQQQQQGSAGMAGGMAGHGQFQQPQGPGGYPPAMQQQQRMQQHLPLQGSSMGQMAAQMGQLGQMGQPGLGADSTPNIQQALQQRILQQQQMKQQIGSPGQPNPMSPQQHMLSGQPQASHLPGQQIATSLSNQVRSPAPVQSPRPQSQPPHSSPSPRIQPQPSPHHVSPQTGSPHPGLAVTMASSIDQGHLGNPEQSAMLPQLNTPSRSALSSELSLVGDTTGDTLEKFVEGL
Test: Inhibition of human CBP/P300 expressed in Escherichia coli BL21(DE3)-R3 assessed as change in melting temperature at 10 uM by SYPRO orange dye-based differential scanning fluorimetry
Please respond with the number in °C and leave the unit unwritten.

Consider the following illustrative entries.
COc1cc(C(C)=O)cc2c1OCCN(C(=O)C1CC1)C2 : 0.3
COc1cc(-c2cc(C)c(OC)c(C)c2)cc2c1OCCN(C(=O)C1CC1)C2 : 4.5

QUERY: Report its ΔTm with CREB-binding protein/Histone acetyltransferase p300 (Homo sapiens, UniProt Q09472+Q92793) as the test system: COc1cc(-c2ccnc(Cl)c2Cl)cc2c1OCCN(C(=O)C1CC1)C2
RESULT: 1.7

QUERY: Report its ΔTm with CREB-binding protein/Histone acetyltransferase p300 (Homo sapiens, UniProt Q09472+Q92793) as the test system: CCC(CC)C(=O)N1CCOc2c(cc(-c3cccc(OC)c3)cc2OC)C1
RESULT: -0.2

QUERY: Report its ΔTm with CREB-binding protein/Histone acetyltransferase p300 (Homo sapiens, UniProt Q09472+Q92793) as the test system: COc1cc(-c2ccnc(N)n2)cc2c1OCCN(C(=O)C1CC1)C2
RESULT: 0.3

* * *

Biological target: CREB-binding protein/Histone acetyltransferase p300 (Homo sapiens, UniProt Q09472+Q92793)
Test: Inhibition of human CBP/P300 expressed in Escherichia coli BL21(DE3)-R3 assessed as change in melting temperature at 10 uM by SYPRO orange dye-based differential scanning fluorimetry
Decide using ΔTm alone. Strictly below 2 °C: Fulfilled. Equal to or above 2 °C: Not fulfilled.

CCC(=O)N1CCOc2c(cc(-c3cccc(Cl)c3)cc2OCc2ccsc2)C1 : Fulfilled
COc1cc(-c2cccc(Cl)c2)cc2c1OCCN(C(=O)C(C)C)C2 : Fulfilled
CCC(=O)N1CCOc2c(cc(-c3cc(OC)cc(OC)c3)cc2C(=O)N[C@H]2CCCNC2)C1 : Not fulfilled
COc1ccc(-c2cc3c(c(OCC4CCCN(C)C4)c2)OCCN(C(=O)C2CC2)C3)cc1OC (stereo not given) : Not fulfilled
CCC(=S)N1CCOc2c(cc(-c3ccc(OC)c(Cl)c3)cc2OC)C1 : Fulfilled
COc1cccc(-c2cc3c(c(OC)c2)OCCN(C(=O)C2CCCO2)C3)c1 (stereo not given) : Fulfilled
COC(=O)N1CCOc2c(cc(-c3ccc(OC)c(Cl)c3)cc2OC)C1 : Not fulfilled
COc1ccc(-c2cc3c(c(OC)c2)OCCN(C(=O)C(F)(F)F)C3)cc1Cl : Fulfilled
CCC(=O)N1CCOc2c(cc(-c3cc(Cl)ccc3OC)cc2OC)C1 : Not fulfilled

QUERY: In plain terms, does CCN(Cc1ccncc1)Cc1ccc2c(c1)CN(C(=O)C1CC1)CCO2 come in under 2 °C for ΔTm?
RESULT: Fulfilled

* * *

Target: Bromodomain-containing protein 4 (Homo sapiens, UniProt O60885)
Assay: Binding affinity to human BRD4 bromodomain 1 expressed in Escherichia coli BL21(DE3)-R3-pRARE2 by isothermal titration calorimetry
quantity: Kd (µM)
Please respond with the number in µM and leave the unit unwritten.

QUERY: Report its Kd with Bromodomain-containing protein 4 (Homo sapiens, UniProt O60885) as the test system: CCC(=O)N1CCOc2c(cc(-c3cc(OC)cc(OC)c3)cc2C(=O)N[C@H]2CCCN(C)C2)C1
RESULT: 5.02
